# system: CB2 (Homo sapiens, UniProt P34972)
# Sequence (P34972 whole entry, species assumed): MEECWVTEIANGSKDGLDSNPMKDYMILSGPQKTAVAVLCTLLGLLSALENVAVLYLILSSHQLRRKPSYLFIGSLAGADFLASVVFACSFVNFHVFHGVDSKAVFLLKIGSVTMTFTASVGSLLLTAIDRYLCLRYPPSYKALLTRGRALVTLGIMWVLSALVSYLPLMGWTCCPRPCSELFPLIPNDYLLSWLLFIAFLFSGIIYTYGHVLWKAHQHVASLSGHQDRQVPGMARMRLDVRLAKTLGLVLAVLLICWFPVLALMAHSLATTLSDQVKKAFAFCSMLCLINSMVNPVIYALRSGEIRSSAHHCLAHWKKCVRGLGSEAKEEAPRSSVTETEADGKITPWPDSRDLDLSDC
# protocol: LANCE Ultra cAMP assay
property label: IC50

query: Find the measured IC50: item C[C@H](NC(=O)c1c(Cc2ccc(F)cc2)sc2c1CCOC2)c1ccc(C(=O)O)cc1 , target or system CB2 (Homo sapiens, UniProt P34972).
result: > 10 µM

Data origin, for the record: paper PMC7799360
